B1: CAMK2A (parent)
chain: ILLVGYPPFWDEDQHRLYKQIKAG

- Variants of: B1
- PROTOCOL: protein stability index of a GFP-peptide fusion (GPS, HEK-293T) (PSI 1-6); higher = more stable;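 note: lentivirally expressed fusions sorted by FACS into six bins by GFP to DsRed ratio, PSI derived from sequencing read proportions per bin multiplied by bin number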
- SETUP CONDITIONS: c terminus: a fixed tail appended
List of protein stability index values.

ALTERATION | protein stability index
G24I | 2.71
D11P | 2.35
G5Q | 2.37
R16A | 2.61
G24C | 2.27
I21D | 1.99
A23G | 1.72
R16P | 1.54
R16M | 2.07
H15I | 2.31
W10Y | 2.05
G24W | 1.96
D11T | 1.85
D11I | 3.45
Y18F | 1.4
H15C | 3.07
Q14S | 2.59
P7W | 2.73
P7F | 2.85
Y6F | 2.73
I21N | 2.19
I1A | 2.25
A23F | 2.23
I1C | 2.39
Y6I | 5.07
D13P | 2.24
A23H | 1.58
Q14F | 2.52
W10G | 1.86
W10R | 1.52
P8K | 2.06
K19F | 2.66
L3Y | 1.74
K19W | 2.65
A23R | 2.21
F9P | 2.13
Q20S | 1.86
K22T | 2.52
G24H | 2.08
I21E | 1.92
L3G | 1.88
H15P | 2.6
L2E | 2.04
R16Y | 3.24
V4G | 2.24
V4S | 1.65
V4D | 2.4
A23W | 3.2
L17F | 2.12
Y18E | 2.38
Y6Q | 2.17
P7A | 1.47
A23E | 2.26
P8R | 3.38
Y6H | 1.28
G24A | 2.05
I1T | 1.58
D11R | 1.21
V4Y | 2.13
I1L | 2.05
P8Y | 1.98
L17T | 2.14
Y6V | 1.45
D13K | 3.5
K19N | 3.09
L3P | 2.58
L2H | 1.72
K19H | 1.38
G24F | 1.51
K19Q | 2.79
F9K | 2.52
D11Y | 1.61
L3F | 2.68
D11V | 2.18
L3K | 1.58
Y6D | 2.12
Y6M | 2.36
Q14H | 2.67
H15V | 2.84
Y18K | 2.31
H15Q | 2.51
R16D | 2.63
D11A | 2.34
I21L | 2.31
Y6T | 1.77
Q20R | 2
H15T | 2.8
Y18Q | 1.51
L2V | 1.67
Q14W | 1.57
V4A | 1.07

Values from the supplement of paper PMC10567573
